The entries below are paired with their reported INHIBITION.
# Tested on: Plasmodium berghei
# EXPERIMENT SUMMARY: Screen against P. berghei liver stage (PbLuc), transformed with Luciferase, at 10uM
# Type: functional, HepG2
# TEST CONTEXT: tested at 10 uM
The campaign covered roughly 69,000 compounds. About 8,600 (12%) showed an effect of 50% or more. The list comes from a sample in which strong results are over-represented; it also holds close analogues and randomly drawn compounds.
Answer with the number, then the unit.

O=C1CCCN1c1cccc(CNCc2nc(C3CC3)no2)c1; 29.6%
CCn1nc(C)c2nc(C(C)C)nc(N3CCCC3)c21; 15.4%
Cc1ccc(OCC(=O)NS(=O)(=O)c2c(C)noc2C)cc1C; 6.14%

Sample Cc1cccc(C)c1OCC(=O)NS(=O)(=O)c1c(C)noc1C ; INHIBITION observed: -55.8%

Sample Cc1nc(CN2C(=O)COC3(CCN(C)CC3)C2C)cs1 (stereo unspecified) ; INHIBITION observed: 8.03%

Sample COc1cc(C2CC(=O)Nc3c2cnn3C)ccc1O (stereo unspecified) ; INHIBITION observed: 10.9%

Origin of measurements: ChEMBL document CHEMBL4513216
